Below is a list of entries, each paired with its recorded Test D disease rating (100 = 100% disease control, 0 = no disease control) value.
System: Phytophthora infestans
protocolSummary: whole plant or invertebrate
Assay type: in vivo
protocolConditions: tomato late blight; spray 17 h after inoculation; compounds without asterisk (not 40 or 10 ppm)
Could you give me the number in %? Just the number is fine.

compound | assayResult
Cc1nc(C2CCN(C(=O)Cn3nc(C(F)(F)F)cc3C)CC2)sc1C(=O)N(C)[C@@H]1CCCc2ccccc21 | 0
C[C@H](c1ccccc1)N(C)C(=O)c1csc(C2CCN(C(=O)Cc3cccs3)CC2)n1 | 0
Cc1ccc(C)c(CC(=O)N2CCC(c3nc(C(=O)N(C)[C@H](C)C4CCCCC4)cs3)CC2)c1 | 16
C[C@H](c1ccccc1)N(C)C(=O)c1csc(C2CCN(C(=O)Cc3cc(C(C)(C)C)no3)CC2)n1 | 0
Cc1ccc(C)c(CC(=O)N2CCC(c3nc(C(=O)N(C)C(C)c4cccs4)cs3)CC2)c1 (stereo not drawn) | 99

Report Test D disease rating (100 = 100% disease control, 0 = no disease control) for COc1ccc([C@@H](C)N(C)C(=O)c2csc(C3CCN(C(=O)Cc4cc(C)ccc4C)CC3)n2)cc1 63

Recall and state the measured Test D disease rating (100 = 100% disease control, 0 = no disease control) for CCCC(c1ccccc1)N(C)C(=O)c1csc(C2CCN(C(=O)Cc3cc(C)ccc3C)CC2)n1 (stereo not drawn) . 53

Return Test D disease rating (100 = 100% disease control, 0 = no disease control) (reported value) for this compound: Cc1ccc(C)c(CC(=O)N2CCC(c3nc(C(=O)N(C)C4CCCCc5ccccc54)cs3)CC2)c1 (stereo not drawn) 57

Assign Test D disease rating (100 = 100% disease control, 0 = no disease control) to the following record: Cc1cc(C(F)(F)F)nn1CC(=O)N1CCC(c2nc(C(=O)N(C)[C@H](C(N)=O)c3ccccc3)cs2)CC1 17
